System: Pseudomonas aeruginosa (Pa) biofilm
Assay: static abiotic solid surface (microtiter, crystal violet) / Bioflux biofilm inhibition screen
Format: cell-based
Details: peptide 10 μg/ml
Peptide text beside a SMILES is read from it.
Exercise: for every item that follows, state its recorded % Biofilm Inhibition Pa.
Answers are plain numbers, in %.

Example entries begin here.
1. CC[C@H](C)[C@H](NC(=O)[C@H](CCCNC(=N)N)NC(=O)[C@H](C)NC(=O)[C@@H](NC(=O)[C@H](CC(C)C)NC(=O)[C@H](CCCNC(=N)N)NC(=O)[C@H](CCCNC(=N)N)NC(=O)[C@@H](NC(=O)[C@@H](NC(=O)[C@H](CCCNC(=N)N)NC(=O)[C@@H](N)CCCCN)[C@@H](C)CC)C(C)C)C(C)C)C(=O)N[C@H](C(N)=O)C(C)C [Peptide 1017] (H-KRIVRRLVARIV-NH2; N-terminus assumed)
26
2. CC[C@H](C)[C@H](N)C(=O)N[C@@H](CC(C)C)C(=O)N[C@@H](CCCNC(=N)N)C(=O)N[C@@H](Cc1c[nH]c2ccccc12)C(=O)N1CCC[C@H]1C(=O)N[C@@H](Cc1c[nH]c2ccccc12)C(=O)N1CCC[C@H]1C(=O)N[C@@H](Cc1c[nH]c2ccccc12)C(=O)N[C@@H](CCCNC(=N)N)C(=O)N[C@@H](CCCNC(=N)N)C(=O)N[C@@H](CCCCN)C(N)=O [MX226, reference compound] (H-ILRWPWPWRRK-NH2; N-terminus assumed)
18
3. CC[C@H](C)[C@H](NC(=O)[C@H](CCCNC(=N)N)NC(=O)[C@@H](NC(=O)[C@H](C)NC(=O)[C@@H](NC(=O)[C@@H](NC(=O)[C@H](CC(C)C)NC(=O)[C@H](CCCNC(=N)N)NC(=O)[C@@H](N)C(C)C)[C@@H](C)CC)C(C)C)C(C)C)C(=O)N[C@@H](Cc1c[nH]c2ccccc12)C(=O)N[C@@H](CCCNC(=N)N)C(=O)N[C@@H](CCCNC(=N)N)C(N)=O [Peptide 1018] (H-VRLIVAVRIWRR-NH2)
99

Next molecule, please.
Entry `CC[C@@H](C)[C@@H](NC(=O)[C@@H](C)NC(=O)[C@@H](CCCNC(=N)N)NC(=O)[C@@H](Cc1c[nH]c2ccccc12)NC(=O)[C@@H](CCC(N)=O)NC(=O)[C@H](N)C(C)C)C(=O)N[C@H](CCCNC(=N)N)C(=O)N[C@@H](C(=O)N[C@H](CCCNC(=N)N)C(=O)N[C@@H](C(=O)N[C@@H](C(=O)N[C@H](CCCNC(=N)N)C(N)=O)[C@H](C)CC)C(C)C)C(C)C` — recorded % Biofilm Inhibition Pa = 99.7

---

System: methicillin resistant Staphylococcus aureus (MRSA) biofilm
Details: approximate peptide concentration […] (around 3 μg/ml); compared to untreated samples
Ends that are not written are not given here.
quantity_name: % Biofilm inhibition
Output should be the measured figure followed by the unit it is expressed in.

1. 1002-V11: single substituted 1002 peptide (VQRWLIVWRIVK-NH2) [Peptide 1002-V11]
68%
2. HH2-K12: single substituted HH2 peptide (VQLRIRVAVIRK-NH2)
67%
3. 1018-I5: single substituted 1018 peptide (VRLIIAVRIWRR-NH2) [Peptide 1018-I5]
60%
4. 1002-I11: single substituted 1002 peptide (VQRWLIVWRIIK-NH2) [Peptide 1002-I11]
67%
5. HH2-Q1: single substituted HH2 peptide (QQLRIRVAVIRA-NH2)
57%

For each of the items listed, what is its % Biofilm inhibition?
1. 1018-I10: single substituted 1018 peptide (VRLIVAVRIIRR-NH2) [Peptide 1018-I10]
2. HH2-K11: single substituted HH2 peptide (VQLRIRVAVIKA-NH2)
3. 1002-Q3: single substituted 1002 peptide (VQQWLIVWRIRK-NH2) [Peptide 1002-Q3]

Resp:
58%
43%
70%

---

Tested on: methicillin resistant Staphylococcus aureus (MRSA) biofilm
Conditions: approximate peptide concentration […] (around 3 μg/ml); compared to untreated samples
Description: Methods of assessment of anti-biofilm activity—Biofilm formation was initially analyzed using a static abiotic solid surface assay as described elsewhere (de la Fuente-Nunez et al., 2012). […] Peptide was added at time zero (prior to adding the diluted, overnight cultures) in varying concentrations, and the decrease in biofilm formation was recorded at 22-46 h for most bacteria. […]
Ends that are not written are not given here.
The label depends only on % Biofilm inhibition: MET if it is at least 70%, NOT MET if it is smaller.

Please review the following examples before continuing.
1. HH2-W8: single substituted HH2 peptide (VQLRIRVWVIRA-NH2)
MET
2. HH2-G8: single substituted HH2 peptide (VQLRIRVGVIRA-NH2)
NOT MET
3. 1002-V5: single substituted 1002 peptide (VQRWVIVWRIRK-NH2) [Peptide 1002-V5]
MET
4. 1002-W6: single substituted 1002 peptide (VQRWLWVWRIRK-NH2) [Peptide 1002-W6]
NOT MET

With those in mind, consider the next substance.
Req: Could you tell me if the measured % Biofilm inhibition of 1002-V3: single substituted 1002 peptide (VQVWLIVWRIRK-NH2) [Peptide 1002-V3] reaches 70% or more?
Resp: NOT MET

---

For each of the substances below, state its IL1β Production.
Test system: LPS-stimulated human peripheral blood mononuclear cells (IL1-β)
Type: cell-based
Conditions: Table 12; cells stimulated with 10 ng/ml LPS; LPS alone 1313 (HH2 derivatives), 1927 (1018 derivatives), 2455 (1002 and hybrid peptides) pg/ml
Ends that are not written are not given here.
Answers are plain numbers, in pg/mL.

// solved cases for IL1β Production follow
1) 1018-A10: single substituted 1018 peptide (VRLIVAVRIARR-NH2) [Peptide 1018-A10]
369
2) HH2-W4: single substituted HH2 peptide (VQLWIRVAVIRA-NH2)
399
3) 1018-K1: single substituted 1018 peptide (KRLIVAVRIWRR-NH2) [Peptide 1018-K1]
173

Consider the additional substance presented here.
1018-W4: single substituted 1018 peptide (VRLWVAVRIWRR-NH2) [Peptide 1018-W4] on LPS-stimulated human peripheral blood mononuclear cells (IL1-β) gives IL1β Production = 182

---

Tested on: LPS-stimulated human peripheral blood mononuclear cells (IL1-β)
Type: cell-based
Details: Table 12; cells stimulated with 10 ng/ml LPS; LPS alone 1313 (HH2 derivatives), 1927 (1018 derivatives), 2455 (1002 and hybrid peptides) pg/ml
Ends that are not written are not given here.
For each of the substances below, state its IL1β Production.
Give bare numbers, in pg/mL.

# annotated cases, reported IL1β Production shown
1) 1002-Q1: single substituted 1002 peptide (QQRWLIVWRIRK-NH2) [Peptide 1002-Q1]
127
2) HH2-L12: single substituted HH2 peptide (VQLRIRVAVIRL-NH2)
301
3) HH2-L9: single substituted HH2 peptide (VQLRIRVALIRA-NH2)
1359
4) 1002-R8: single substituted 1002 peptide (VQRWLIVRRIRK-NH2) [Peptide 1002-R8]
892
5) 1018-V12: single substituted 1018 peptide (VRLIVAVRIWRV-NH2) [Peptide 1018-V12]
673

Parameters: items (list). Returns: IL1β Production for each item.
1. 1002-K8: single substituted 1002 peptide (VQRWLIVKRIRK-NH2) [Peptide 1002-K8]
2. 1002-A11: single substituted 1002 peptide (VQRWLIVWRIAK-NH2) [Peptide 1002-A11]
3. HH2-R1: single substituted HH2 peptide (RQLRIRVAVIRA-NH2)

Resp:
1632
127
1965

Would you be so kind as to report IL1β Production for each listed record?
1. 1002-K10: single substituted 1002 peptide (VQRWLIVWRKRK-NH2) [Peptide 1002-K10]
2. 1018-V4: single substituted 1018 peptide (VRLVVAVRIWRR-NH2) [Peptide 1018-V4]
3. 1002-Q12: single substituted 1002 peptide (VQRWLIVWRIRQ-NH2) [Peptide 1002-Q12]
4. 1002-L11: single substituted 1002 peptide (VQRWLIVWRILK-NH2) [Peptide 1002-L11]
5. 1002-R7: single substituted 1002 peptide (VQRWLIRWRIRK-NH2) [Peptide 1002-R7]

Resp:
127
144
127
127
382

Known value: LPS-stimulated human peripheral blood mononuclear cells (IL1-β) IL1β Production of the substance HH2-L7: single substituted HH2 peptide (VQLRIRLAVIRA-NH2) equals 1378

---

Tested on: methicillin resistant Staphylococcus aureus (MRSA) biofilm
Conditions: approximate peptide concentration […] (around 3 μg/ml); compared to untreated samples
Ends that are not written are not given here.
quantity_name: % Biofilm inhibition (%)
Answers are plain numbers, in %.

Illustrative cases are given below, each with its answer.
1. 1002-L11: single substituted 1002 peptide (VQRWLIVWRILK-NH2) [Peptide 1002-L11]
61
2. 1002-Q8: single substituted 1002 peptide (VQRWLIVQRIRK-NH2) [Peptide 1002-Q8]
20
3. 1018-V4: single substituted 1018 peptide (VRLVVAVRIWRR-NH2) [Peptide 1018-V4]
75
4. 1018-L7: single substituted 1018 peptide (VRLIVALRIWRR-NH2) [Peptide 1018-L7]
72
5. HH2-I7: single substituted HH2 peptide (VQLRIRIAVIRA-NH2)
69

List % Biofilm inhibition for every entry below, keeping the order given.
1. HH2-W3: single substituted HH2 peptide (VQWRIRVAVIRA-NH2)
2. HH2-Q4: single substituted HH2 peptide (VQLQIRVAVIRA-NH2)
3. 1018-L4: single substituted 1018 peptide (VRLLVAVRIWRR-NH2) [Peptide 1018-L4]
4. 1018-L2: single substituted 1018 peptide (VLLIVAVRIWRR-NH2) [Peptide 1018-L2]

Resp:
1. 62
2. 45
3. 64
4. 61
